Biological target: human DGKζ (Homo sapiens, UniProt Q13574)
Construct: TVMV protease cleavage site (C); Hexa-His (C); made in house; host or cells: Sf9 insect cells (baculovirus, Bac-to-Bac)
Sequence (Q13574 with tags, fused parts or gaps isoform Q13574-4): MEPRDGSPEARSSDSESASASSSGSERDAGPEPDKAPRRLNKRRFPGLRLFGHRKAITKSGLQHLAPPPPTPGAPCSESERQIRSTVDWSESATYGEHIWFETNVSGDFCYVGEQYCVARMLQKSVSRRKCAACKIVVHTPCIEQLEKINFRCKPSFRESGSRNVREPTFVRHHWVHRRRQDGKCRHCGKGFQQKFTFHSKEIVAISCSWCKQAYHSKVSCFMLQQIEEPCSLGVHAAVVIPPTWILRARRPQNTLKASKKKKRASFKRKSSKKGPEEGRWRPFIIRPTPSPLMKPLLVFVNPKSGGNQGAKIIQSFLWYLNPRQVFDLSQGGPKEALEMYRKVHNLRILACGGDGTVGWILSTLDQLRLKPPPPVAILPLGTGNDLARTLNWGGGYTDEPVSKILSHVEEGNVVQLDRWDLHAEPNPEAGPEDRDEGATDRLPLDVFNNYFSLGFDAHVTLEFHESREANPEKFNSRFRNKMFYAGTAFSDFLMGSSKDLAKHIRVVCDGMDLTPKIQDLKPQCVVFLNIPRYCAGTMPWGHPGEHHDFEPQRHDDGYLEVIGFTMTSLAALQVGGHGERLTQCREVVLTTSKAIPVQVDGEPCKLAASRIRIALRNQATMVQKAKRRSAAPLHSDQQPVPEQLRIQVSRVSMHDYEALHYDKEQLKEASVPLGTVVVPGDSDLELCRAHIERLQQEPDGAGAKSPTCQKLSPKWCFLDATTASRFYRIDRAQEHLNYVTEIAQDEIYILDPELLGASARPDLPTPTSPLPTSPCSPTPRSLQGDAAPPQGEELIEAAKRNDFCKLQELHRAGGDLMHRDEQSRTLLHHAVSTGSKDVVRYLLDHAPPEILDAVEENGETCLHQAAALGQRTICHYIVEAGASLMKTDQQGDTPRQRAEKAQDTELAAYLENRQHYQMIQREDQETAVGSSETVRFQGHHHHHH
Experiment: DGKζ LIPGLO assay (extruded liposome substrate), in vitro DGK inhibition
Assay type: biochemical
Conditions: liposome (LIPGLO) assay; read-out: DGKz LIPGLO IC50
Assay Readout: IC50 (µM)
Please reply with the bare figure in µM and do not write the unit itself.

Below are worked cases with known answers.
{"Compound": "COCc1cc(C(C)N2C[C@H](C)N(c3cc(=O)n(C)c4ccc(C#N)nc34)C[C@H]2C)ccc1F (single isomer, unassigned) [Example 1317]", "IC50 [µM]": 0.97}
{"Compound": "CC(c1ccc(C(F)(F)F)cc1F)N1C[C@H](C)N(c2cc(=O)n(C)c3ccc(C#N)nc23)C[C@H]1C (single isomer, unassigned) [Example 434]", "IC50 [µM]": 0.7}

Now look at this one.
What measured IC50 goes with CCC(c1ccc(OC(F)(F)F)cc1)N1C[C@H](C)N(c2cc(=O)n(C)c3ccc(C#N)nc23)C[C@H]1CC (single isomer, unassigned) [Example 1198] ? 1.1

---

Listing of entries alongside the reported pIC50.
Target: human DGKα (Homo sapiens)
Construct: TVMV protease cleavage site (C); Hexa-His (C); made in house; host or cells: Sf9 insect cells (baculovirus, Bac-to-Bac)
Experiment: DGKα LIPGLO assay (extruded liposome substrate), in vitro DGK inhibition
Format: biochemical
Details: liposome (LIPGLO) assay; read-out: DGKa LIPGLO IC50
Quick note: pIC50 means taking -log10 of the concentration in moles per liter.

Field: example entries. Status: answers known.
{"Compound": "CCC(c1cc(OC(F)(F)F)ccc1F)N1C[C@H](C)N(c2cc(=O)n(C)c3ccc(C#N)nc23)C[C@H]1C (some centres unmarked)", "pIC50": 4.85}
{"Compound": "C[C@@H]1CN(c2cc(=O)n(C)c3ccc(C#N)nc23)[C@@H](C)CN1C(c1ccc(C#N)cc1)c1ccc(F)cn1 (some centres unmarked) [Example 464]", "pIC50": 6.55}
{"Compound": "CC(c1ccc(OC(F)(F)F)cc1)N1C[C@H](C)N(c2cc(=O)n(C)c3ccc(C#N)nc23)C[C@H]1CC#N (single isomer, unassigned) [Example 1412]", "pIC50": 6.54}

Now turn to the next compound.
What value of pIC50 has been recorded for this entry: `Cc1cc(OC(F)(F)F)ccc1CN1C[C@H](C)N(c2cc(=O)n(C)c3ccc(C#N)nc23)C[C@H]1C` 5.80

---

Molecular target: human DGKα (Homo sapiens, UniProt P23743)
Construct: TVMV protease cleavage site (C); Hexa-His (C); made in house; host or cells: Sf9 insect cells (baculovirus, Bac-to-Bac)
Sequence (P23743 with tags, fused parts or gaps): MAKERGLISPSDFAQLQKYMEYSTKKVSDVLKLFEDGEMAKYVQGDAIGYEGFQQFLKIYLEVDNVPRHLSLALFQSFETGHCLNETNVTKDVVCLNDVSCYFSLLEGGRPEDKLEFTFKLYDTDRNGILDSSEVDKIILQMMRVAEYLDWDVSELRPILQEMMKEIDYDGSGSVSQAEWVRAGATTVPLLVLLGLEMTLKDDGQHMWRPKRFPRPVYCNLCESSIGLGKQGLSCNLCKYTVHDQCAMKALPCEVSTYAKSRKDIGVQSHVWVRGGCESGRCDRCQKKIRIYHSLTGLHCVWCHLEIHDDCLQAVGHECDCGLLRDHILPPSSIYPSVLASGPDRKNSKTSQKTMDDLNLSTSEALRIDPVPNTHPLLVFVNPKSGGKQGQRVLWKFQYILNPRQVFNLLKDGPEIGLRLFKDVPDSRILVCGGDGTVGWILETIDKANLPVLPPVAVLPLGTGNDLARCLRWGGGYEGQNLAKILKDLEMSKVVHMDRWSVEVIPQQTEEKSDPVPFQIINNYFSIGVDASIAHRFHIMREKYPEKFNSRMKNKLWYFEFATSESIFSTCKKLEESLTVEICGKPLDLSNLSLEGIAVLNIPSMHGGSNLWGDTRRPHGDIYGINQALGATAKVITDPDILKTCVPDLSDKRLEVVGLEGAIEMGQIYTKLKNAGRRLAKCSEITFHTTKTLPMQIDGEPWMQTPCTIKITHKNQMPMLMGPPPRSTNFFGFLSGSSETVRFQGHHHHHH
Assay: DGKα LIPGLO assay (extruded liposome substrate), in vitro DGK inhibition
Type: biochemical
Conditions: liposome (LIPGLO) assay; read-out: DGKa LIPGLO IC50
Field 'label' (enum: T / F). Set to T when IC50 is strictly under 1000 nM; else F.

See these solved cases before continuing.
{"Compound": "C[C@@H]1CN(c2cc(=O)n(C)c3ccc(C#N)nc23)[C@@H](C)CN1C(c1ccc(Cl)cc1)c1ncccc1F (single isomer, unassigned) [Example 190]", "Experimental Target": "human DGKα (Homo sapiens, UniProt P23743)", "Label Class": "T"}
{"Compound": "CCOC[C@@H]1CN(c2cc(=O)n(C)c3ccc(C#N)nc23)[C@@H](C)CN1C(c1ccc(F)cc1)c1ccc(C(F)(F)F)cn1 (stereo partly shown) [Example 1403]", "Experimental Target": "human DGKα (Homo sapiens, UniProt P23743)", "Label Class": "F"}
{"Compound": "C[C@@H]1CN(c2cc(=O)n(C)c3ccc(C#N)nc23)[C@@H](C)CN1C(c1ccc(F)cc1)c1ccc(C#N)cc1 (single isomer, unassigned) [Example 306]", "Experimental Target": "human DGKα (Homo sapiens, UniProt P23743)", "Label Class": "T"}

Just wondering, is IC50 of COC(=O)C1CN(C(c2ccc(F)cc2)c2ccc(F)cc2)CCN1c1c(Br)c(=O)n(C)c2ccc(C#N)nc12 (stereo not shown) [Example 162] below 1000 nM? F

# strict comparison: is reported IC50 < 1000 nM? input = CC[C@H]1CN(C(c2ccc(F)cc2)c2cscn2)[C@H](CC)CN1c1cc(=O)n(C)c2ccc(C#N)nc12 (single isomer, unassigned) [Example 1070] T

Problem: For the compound CC(c1cc(F)c(F)c(F)c1)N1C[C@H](C)N(c2cc(=O)n(C)c3ccc(C#N)nc23)C[C@H]1C (single isomer, unassigned) [Example 1241] , is IC50 under 1000 nM? F

Given Cc1c(F)ccc(C(C)N2C[C@H](C)N(c3cc(=O)n(C)c4ccc(C#N)nc34)C[C@H]2C)c1Cl (single isomer, unassigned) [Example 487] , is recorded IC50 strictly lower than 1000 nM? F

Lab note: IC50 threshold 1000 nM. Does this compound come in strictly under it? Cc1ccc(C(c2ccc(Cl)cc2)N2C[C@H](C)N(c3cc(=O)n(C)c4ccc(C#N)nc34)C[C@H]2C)cc1 (single isomer, unassigned) [Example 247] T
